experiment: yeast display, Sf9 membrane polyspecificity reagent, FACS + sequencing; frameworks hold sequencing errors
endpointName: polyreactivity (PSR sort gate)

1. QVQLVESGGGLVQAGGSLRLSCAASGRIFWSYAMGWYRQAPGKEREFVAVITWSGGSTYYADSVKGRFTISRDNAKNTVYLQMNSLKPEDTAVYYCADGQWWYQVRFDYWGQGTQVTVSS	low polyreactivity
2. QVQLVESGGGLVQAGGSLRLSCAASGSIFWYYAMGWSRQAPGKERELVAAITGSGGSTYYADSVKGRFTISRDNAKTTVYLQLNSLKPEDTAVYYCAAEAFFWYYGWYDYWGQGTQVTVSS	high polyreactivity
3. QVQLVESVGGLVQAGGSLSLSSAASGRTFGNYAMGWYRQAPGKERELVADITRRGGSTSYADSVKGRFTISRDNAKNTVYLQMTSLKTEDTAVYYCNKAAEGSSHYDYWGLGTQVTVSS	low polyreactivity
4. QVQLVETGGGLVQAGGSLRLSCAASGPTFSRNAKGWYRQAPGKERELVATISRGGGITFYADSVKGRFTISRDNAKNTVYLQMNSLKPEDTAVYYCNADVRYVGLRRIVDYWGQGTQVTVSS	high polyreactivity

Origin of measurements: the nanobody polyreactivity screen of Harvey et al. (2022)
